- tested_on: CYP3A4 (Homo sapiens)
- method_notes: Kinetic properties of fluorogenic substrates with CYP 3A4
- Type: biochemical
- recorded_conditions: turnover rate at 1.25 uM substrate; — = too low to quantify
- Text: For further understanding these terms in the context of this invention, attention is directed to FIG. 4 and the analysis of FIG. 4. (respectively, MFC and MR).
value_type: v (1.25 uM) (min⁻¹)

compound	observed
CCOCOc1ccc2nc3ccc(=O)cc-3oc2c1 [EOMR]	0.03
COCOc1ccc2nc3ccc(=O)cc-3oc2c1 [MOMR]	0.0083
N#Cc1cc2ccc(OCOCc3ccccc3)cc2oc1=O [BOMCC, 7-Benzyloxymethyloxy-3-cyanocoumarin]	0.12
CCCCCCCCOCOc1ccc2nc3ccc(=O)cc-3oc2c1 [OOMR, Octyloxymethylresorufin]	0.323
O=c1ccc2nc3ccc(OCOCc4ccccc4)cc3oc-2c1 [BOMR, Benzyloxymethylresorufin]	0.55

====

// reported v (10 uM) for each item listed
- tested_on: CYP2C19 (Homo sapiens, UniProt P33261)
- Sequence (P33261 whole entry): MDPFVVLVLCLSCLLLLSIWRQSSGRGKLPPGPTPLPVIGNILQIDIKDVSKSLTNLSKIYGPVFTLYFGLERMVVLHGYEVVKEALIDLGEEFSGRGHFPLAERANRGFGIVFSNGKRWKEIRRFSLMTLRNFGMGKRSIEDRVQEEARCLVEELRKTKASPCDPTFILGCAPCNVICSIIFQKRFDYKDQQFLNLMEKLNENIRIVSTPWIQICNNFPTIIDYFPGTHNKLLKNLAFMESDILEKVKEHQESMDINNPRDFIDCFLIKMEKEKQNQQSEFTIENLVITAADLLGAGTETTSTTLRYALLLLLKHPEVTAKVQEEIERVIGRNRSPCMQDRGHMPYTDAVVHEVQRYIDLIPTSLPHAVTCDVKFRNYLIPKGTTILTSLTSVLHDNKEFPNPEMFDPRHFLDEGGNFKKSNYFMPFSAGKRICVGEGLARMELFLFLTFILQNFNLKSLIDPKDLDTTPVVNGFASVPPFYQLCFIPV
- method_notes: Kinetic properties of fluorogenic substrates with CYP 2C19
- Format: biochemical
- recorded_conditions: turnover rate at 10 uM substrate; — = too low to quantify

compound_structure	v (10 uM)
CCCCCCCCOCOc1ccc2nc3ccc(=O)cc-3oc2c1	0.13 min⁻¹
CCOCOc1ccc2cc(C#N)c(=O)oc2c1	2.22 min⁻¹
CC(C)Oc1ccc2cc(C#N)c(=O)oc2c1	0.232 min⁻¹
CCN(CC)Cc1cc(=O)oc2cc(OC)ccc12	0.23 min⁻¹
COCOc1ccc2nc3ccc(=O)cc-3oc2c1	0.062 min⁻¹
COCOc1ccc2cc(C#N)c(=O)oc2c1	0.38 min⁻¹

====

- tested_on: CYP3A4 (Homo sapiens, UniProt P08684)
- Sequence (P08684 whole entry): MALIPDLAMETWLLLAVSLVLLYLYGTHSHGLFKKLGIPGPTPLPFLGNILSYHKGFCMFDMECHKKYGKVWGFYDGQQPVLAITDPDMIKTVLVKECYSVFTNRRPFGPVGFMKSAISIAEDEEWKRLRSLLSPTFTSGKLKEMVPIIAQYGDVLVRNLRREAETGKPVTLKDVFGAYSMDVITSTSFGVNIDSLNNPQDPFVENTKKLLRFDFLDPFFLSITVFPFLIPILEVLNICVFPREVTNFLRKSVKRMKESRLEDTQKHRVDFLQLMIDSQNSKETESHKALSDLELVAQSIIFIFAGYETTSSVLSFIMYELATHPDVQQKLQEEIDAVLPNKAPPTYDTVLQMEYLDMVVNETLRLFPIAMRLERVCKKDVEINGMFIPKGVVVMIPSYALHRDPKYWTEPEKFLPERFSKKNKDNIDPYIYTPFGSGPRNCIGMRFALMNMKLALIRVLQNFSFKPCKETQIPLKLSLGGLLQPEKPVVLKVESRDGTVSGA
- method_notes: in vitro
- recorded_conditions: pH 8, % inhibition, substrate BOMR, Condition B

compound	unit_of_measurement	inhibition at 40 min, 10 µM
NNC(=O)c1ccncc1	%	30
O=C1CN(/N=C/c2ccc([N+](=O)[O-])o2)C(=O)N1	%	27
COc1cccc2c1C(=O)c1c(O)c3c(c(O)c1C2=O)C[C@@](O)(C(=O)CO)C[C@@H]3O[C@H]1C[C@H](N)[C@H](O)[C@H](C)O1	%	72
C=CCOc1ccccc1OCC(O)CNC(C)C (centres unmarked)	%	13
O=C1NC(=O)C(c2ccccc2)(c2ccccc2)N1	%	24

====

- tested_on: CYP3A4 (Homo sapiens, UniProt P08684)
- method_notes: in vitro
- recorded_conditions: pH 8, % inhibition, substrate BOMR, Condition A, 10 μM drug, 20 min pre-incubation without NADP+ (no enzyme turnover), relative to 10 μM clotrimazole control

molecule	tested_on	unit_of_measurement	inhibition at 20 min, 10 µM
Cc1c2ccncc2c(C)c2c1[nH]c1ccccc12 [Ellipticine]	CYP3A4 (Homo sapiens, UniProt P08684)	%	97
COc1ccc(Cc2nccc3cc(OC)c(OC)cc23)cc1OC [Papaverine]	CYP3A4 (Homo sapiens, UniProt P08684)	%	69

====

- tested_on: CYP3A4 (Homo sapiens, UniProt P08684)
- method_notes: Kinetic properties of fluorogenic substrates with CYP 3A4
- Format: biochemical
- Source text: For further understanding these terms in the context of this invention, attention is directed to FIG. 4 and the analysis of FIG. 4. (respectively, MFC and MR).
value_type: type of kinetics

compound	value_type	observed
O=c1ccc2nc3ccc(OCOCc4ccccc4)cc3oc-2c1 [BOMR, Benzyloxymethylresorufin]	type of kinetics	Michaelis-Menten
O=c1ccc2nc3ccc(OCc4ccccc4)cc3oc-2c1 [BR, Benzylresorufin, reference compound]	type of kinetics	Michaelis-Menten
COc1ccc(COc2ccc3c(C(F)(F)F)cc(=O)oc3c2)cc1 [MOBFC]	type of kinetics	Michaelis-Menten
CCOCOc1ccc2nc3ccc(=O)cc-3oc2c1 [EOMR]	type of kinetics	Michaelis-Menten

====

// reported inhibition at 40 min, 10 µM for each item listed
- tested_on: CYP3A4 (Homo sapiens)
- method_notes: in vitro
- recorded_conditions: pH 8, % inhibition, substrate DBOMF, Condition B
value_type: inhibition at 40 min, 10 µM (%)

compound	tested_on	observed
O=C1CN(/N=C/c2ccc([N+](=O)[O-])o2)C(=O)N1	CYP3A4 (Homo sapiens)	-3
NNC(=O)c1ccncc1	CYP3A4 (Homo sapiens)	3
C=CCOc1ccccc1OCC(O)CNC(C)C (centres unmarked)	CYP3A4 (Homo sapiens)	3
O=C1NC(=O)C(c2ccccc2)(c2ccccc2)N1	CYP3A4 (Homo sapiens)	5
COc1cccc2c1C(=O)c1c(O)c3c(c(O)c1C2=O)C[C@@](O)(C(=O)CO)C[C@@H]3O[C@H]1C[C@H](N)[C@H](O)[C@H](C)O1	CYP3A4 (Homo sapiens)	33

====

- tested_on: CYP2C19 (Homo sapiens, UniProt P33261)
- method_notes: Kinetic properties of fluorogenic substrates with CYP 2C19
- Assay type: biochemical
- recorded_conditions: turnover rate at 10 uM substrate; — = too low to quantify
Lab note: cut-off is 0.3 min⁻¹. Strictly less in v (10 uM) is Yes. Exactly 0.3 min⁻¹ or more is No.

compound	discrete_label
CCOc1ccc2cc(C#N)c(=O)oc2c1 [3CEC, 3-Cyano-7-ethoxycoumarin, reference compound]	No
COc1ccc(COc2ccc3nc4ccc(=O)cc-4oc3c2)cc1	No
N#Cc1cc2ccc(OCOCc3ccccc3)cc2oc1=O	No
N#Cc1cc2ccc(OCc3ccccc3)cc2oc1=O [BCC, 7-Benzyloxy-3-cyanocoumarin, reference compound]	Yes
CCCCCCCCOCOc1ccc2cc(C#N)c(=O)oc2c1	No
COc1ccc2cc(C#N)c(=O)oc2c1 [3CMC, 3-cyano-7-methoxycoumarin, reference compound]	Yes

====

- tested_on: CYP3A4 (Homo sapiens, UniProt P08684)
- method_notes: in vitro
- recorded_conditions: pH 8, % inhibition, substrate BOMCC, Condition B
// reported inhibition at 40 min, 10 µM for each item listed

compound	tested_on	inhibition at 40 min, 10 µM, %
O=C1NC(=O)C(c2ccccc2)(c2ccccc2)N1	CYP3A4 (Homo sapiens, UniProt P08684)	21
C=CCOc1ccccc1OCC(O)CNC(C)C (centres unmarked)	CYP3A4 (Homo sapiens, UniProt P08684)	21
O=C1CN(/N=C/c2ccc([N+](=O)[O-])o2)C(=O)N1	CYP3A4 (Homo sapiens, UniProt P08684)	33
NNC(=O)c1ccncc1	CYP3A4 (Homo sapiens, UniProt P08684)	48
COc1cccc2c1C(=O)c1c(O)c3c(c(O)c1C2=O)C[C@@](O)(C(=O)CO)C[C@@H]3O[C@H]1C[C@H](N)[C@H](O)[C@H](C)O1	CYP3A4 (Homo sapiens, UniProt P08684)	79

====

- tested_on: CYP3A4 (Homo sapiens, UniProt P08684)
- method_notes: in vitro
- recorded_conditions: pH 8, % inhibition, substrate BOMR, Condition B, 10 μM drug, 40 min pre-incubation with NADP+ (enzyme turnover), relative to 10 μM ellipticine control
value_type: inhibition at 40 min, 10 µM (%)

compound_structure	tested_on	unit_of_measurement	observed
Cc1c2ccncc2c(C)c2c1[nH]c1ccccc12	CYP3A4 (Homo sapiens, UniProt P08684)	%	100
COc1ccc(Cc2nccc3cc(OC)c(OC)cc23)cc1OC	CYP3A4 (Homo sapiens, UniProt P08684)	%	92

====

- tested_on: CYP3A4 (Homo sapiens)
- method_notes: in vitro
- recorded_conditions: pH 8, % inhibition, substrate BOMCC, Condition B, 10 μM drug, 40 min pre-incubation with NADP+ (enzyme turnover), relative to 10 μM ellipticine control
// reported inhibition at 40 min, 10 µM for each item listed
value_type: inhibition at 40 min, 10 µM (%)

compound_structure	observed
Cc1c2ccncc2c(C)c2c1[nH]c1ccccc12	100
COc1ccc(Cc2nccc3cc(OC)c(OC)cc23)cc1OC	99

====

// reported Km for each item listed
- tested_on: CYP 2B6 (Homo sapiens)
- Sequence (P20813 1-491): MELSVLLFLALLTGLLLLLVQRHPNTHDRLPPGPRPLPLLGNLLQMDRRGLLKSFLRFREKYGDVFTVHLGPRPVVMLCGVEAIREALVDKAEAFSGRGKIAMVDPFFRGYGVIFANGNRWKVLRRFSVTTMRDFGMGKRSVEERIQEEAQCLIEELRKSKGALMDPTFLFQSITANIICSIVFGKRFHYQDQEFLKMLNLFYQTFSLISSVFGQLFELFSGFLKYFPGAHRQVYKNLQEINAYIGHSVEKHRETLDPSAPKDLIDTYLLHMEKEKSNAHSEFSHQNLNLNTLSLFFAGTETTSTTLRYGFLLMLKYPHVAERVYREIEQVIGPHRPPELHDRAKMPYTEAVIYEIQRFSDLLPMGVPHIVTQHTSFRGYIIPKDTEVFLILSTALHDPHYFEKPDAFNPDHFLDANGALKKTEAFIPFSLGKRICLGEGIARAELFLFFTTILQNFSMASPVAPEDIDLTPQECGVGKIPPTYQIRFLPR
- method_notes: Kinetic properties of fluorogenic substrates with CYP 2B6
- Assay type: biochemical
- recorded_conditions: human, CYP 2B6 isozyme; — = too low to quantify

compound	unit_of_measurement	Km
N#Cc1cc2ccc(OCOCc3ccccc3)cc2oc1=O	µM	52
N#Cc1cc2ccc(OCc3ccccc3)cc2oc1=O [BCC, 7-Benzyloxy-3-cyanocoumarin, reference compound]	µM	1.3
COc1ccc(COc2ccc3nc4ccc(=O)cc-4oc3c2)cc1	µM	0.01
O=c1ccc2nc3ccc(OCOCc4ccccc4)cc3oc-2c1	µM	0.73
